# target-or-test-system: T1, Cynomolgus monkey cKIT D1-5 (cynomolgus monkey, UniProt P10721 26-524 (human entry))
# T1 construct: also called cyno cKIT ECD
# T1 chain: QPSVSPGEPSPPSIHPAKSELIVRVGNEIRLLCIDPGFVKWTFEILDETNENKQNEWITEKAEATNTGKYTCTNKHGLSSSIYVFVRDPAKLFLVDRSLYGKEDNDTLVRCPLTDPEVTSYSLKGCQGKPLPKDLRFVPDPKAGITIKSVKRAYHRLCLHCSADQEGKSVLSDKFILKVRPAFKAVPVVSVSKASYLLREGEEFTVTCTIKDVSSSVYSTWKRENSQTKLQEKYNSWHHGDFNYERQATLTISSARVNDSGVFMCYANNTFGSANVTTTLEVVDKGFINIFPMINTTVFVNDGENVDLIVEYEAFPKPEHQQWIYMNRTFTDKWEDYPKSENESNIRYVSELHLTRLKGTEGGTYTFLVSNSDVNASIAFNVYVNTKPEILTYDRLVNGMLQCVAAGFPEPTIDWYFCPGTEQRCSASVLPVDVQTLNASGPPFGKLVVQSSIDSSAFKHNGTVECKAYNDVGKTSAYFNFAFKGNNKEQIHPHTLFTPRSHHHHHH
# test-details: 'in SET' by the column head; Example 4 describes Biacore SPR (antibody captured by anti-human Fc, cKIT ECD in solution)
pKd: −log10 of the molar value.

binder: Anti-cKIT Ab2 (antibody, human IgG1, kappa, V domains shown, Full-length human IgG1, kappa light chain; also called IgG control for J2) VH: QVQLVQSGAEVKKPGSSVKVSCKASGGTFSSHALSWVRQAPGQGLEWMGGIIPSFGTADYAQKFQGRVTITADESTSTAYMELSSLRSEDTAVYYCARGLYDFDYWGQGTLVTVSS VL: DIQMTQSPSSLSASVGDRVTITCRASQDISQDLAWYQQKPGKAPKLLIYDASSLQSGVPSRFSGSGSGTDFTLTISSLQPEDFAVYYCQQYYYLPSTFGQGTKVEIKR
pKd: 11.00

binder: Anti-cKIT Ab3 (antibody, human IgG1, kappa, V domains shown, Full-length human IgG1, kappa light chain; also called IgG control for J3) VH: QVQLVQSGAEVKKPGSSVKVSCKASGGTFSSYAISWVRQAPGQGLEWMGTIGPFEGQPRYAQKFQGRVTITADESTSTAYMELSSLRSEDTAVYYCARGGYISDFDVWGQGTLVTVSS VL: DIQMTQSPSSLSASVGDRVTITCRASQSISNYLAWYQQKPGKAPKLLIYDASSLQSGVPSRFSGSGSGTDFTLTISSLQPEDFATYYCQQYYYESITFGQGTKVEIKR
pKd: 10.28

binder: Anti-cKIT Ab5 (antibody, human IgG1, lambda, V domains shown, Full-length human IgG1, lambda light chain) VH: QVQLVQSGAEVKKPGESLKISCKGSGYSFTNYWIAWVRQMPGKGLEWMGIIYPSNSYTLYSPSFQGQVTISADKSISTAYLQWSSLKASDTAMYYCARVPPGGSISYPAFDHWGQGTLVTVSS VL: DIELTQPPSVSVSPGQTASITCSGDNIGSIYASWYQQKPGQAPVLVIYRDNKRPSGIPERFSGSNSGNTATLTISGTQAEDEADYYCSVTDMEQHSVFGGGTKLTVLG
pKd: 9.74
